System: HTT mRNA
assayRemarks: RT-qPCR splicing assay, HTT canonical (CJ) and alternative (AJ) junction mRNA
Type: cell-based, human
testParameters: Homo sapiens, 24 h, Table 3A; A673 or K562 cells, 24 h treatment; read-out: HTT CJ (IC50, decrease in CJ mRNA)
pIC50: −log10 of the molar value.
Known pIC50 of a selection of molecules

Look over these answered cases.
[
  {
    "molecule": "Cc1nnc(-c2cc(O)c(-c3ccc(N4CC[C@H](NC5CCC5)C4)nn3)cc2F)s1",
    "assayedSystem": "HTT mRNA",
    "measuredResult": "6.00 to 7.00"
  },
  {
    "molecule": "COc1cc(-c2ccc(-c3ccc(N4CCC(NCC5CC5)C4)nn3)c(O)c2)nc(C)n1 (centres unmarked)",
    "assayedSystem": "HTT mRNA",
    "measuredResult": "5.00 to 6.00"
  },
  {
    "molecule": "Cc1ncc(-c2cc(O)c(-c3ccc(N4CC[C@H](N[C@H](C)C5CC5)C4)nn3)cc2F)s1",
    "assayedSystem": "HTT mRNA",
    "measuredResult": "> 7.00"
  },
  {
    "molecule": "Cc1ncc(-c2cc(O)c(-c3cnc(OC4CC(C)(C)NC(C)(C)C4)nn3)cc2F)s1",
    "assayedSystem": "HTT mRNA",
    "measuredResult": "6.00 to 7.00"
  }
]

Now examine the next entry.
Please fill in: pIC50 reported for COc1cc(-c2ccc(-c3ccc(N4CC[C@](C)(NCC5CC5)C4)nn3)c(O)c2)ncn1 = > 7.00
